measured_on: GLUT4 (Homo sapiens)
Sequence (P14672 whole entry): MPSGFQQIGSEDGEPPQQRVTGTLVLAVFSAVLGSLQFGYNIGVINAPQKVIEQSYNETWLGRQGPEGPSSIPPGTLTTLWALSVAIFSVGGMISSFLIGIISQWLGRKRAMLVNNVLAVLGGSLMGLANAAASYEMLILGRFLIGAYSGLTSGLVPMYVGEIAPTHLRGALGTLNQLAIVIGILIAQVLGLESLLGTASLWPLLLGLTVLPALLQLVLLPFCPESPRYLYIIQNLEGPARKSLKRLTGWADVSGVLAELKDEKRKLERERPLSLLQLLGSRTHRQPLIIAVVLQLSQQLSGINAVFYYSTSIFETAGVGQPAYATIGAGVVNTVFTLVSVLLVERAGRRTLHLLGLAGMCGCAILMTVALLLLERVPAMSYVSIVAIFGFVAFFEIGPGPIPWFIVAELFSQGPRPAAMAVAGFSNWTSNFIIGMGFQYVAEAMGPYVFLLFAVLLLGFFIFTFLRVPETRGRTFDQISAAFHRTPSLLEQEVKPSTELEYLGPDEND
test_description: [3H]-2-deoxyglucose uptake in GLUT-expressing HEK293 cells
quantity: IC50 (µM)

[[record]]
compound = "Cc1c(NC(=O)c2cc(C(N)=O)nc3cc(F)ccc23)c(C(F)(F)F)nn1Cc1ccc(C#N)cc1 [BAY-876]"
unit_string = "µM"
value = 5.4

